# TARGET UNDER TEST: kappa opioid receptor (Cavia porcellus, UniProt P41144)
# Construct: a strip of longitudinal muscle with the myenteric plexus attached was prepared; from tissue; host or cells: guinea pig ileum longitudinal muscle with myenteric plexus
# Sequence (P41144 whole entry): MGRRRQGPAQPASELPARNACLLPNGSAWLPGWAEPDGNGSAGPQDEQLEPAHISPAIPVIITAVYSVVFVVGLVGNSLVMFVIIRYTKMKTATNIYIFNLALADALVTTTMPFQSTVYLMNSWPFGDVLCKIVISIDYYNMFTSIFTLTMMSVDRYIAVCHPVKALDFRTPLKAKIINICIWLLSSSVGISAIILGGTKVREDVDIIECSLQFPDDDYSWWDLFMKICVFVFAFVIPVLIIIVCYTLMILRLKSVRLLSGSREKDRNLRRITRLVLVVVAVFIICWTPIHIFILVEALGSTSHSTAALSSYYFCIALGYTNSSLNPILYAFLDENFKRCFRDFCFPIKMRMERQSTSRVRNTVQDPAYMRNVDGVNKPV
# METHOD NOTES: Antagonism of ethylketazocine (kappa agonist) in the guinea pig ileum (GPI) preparation
# Type: cell-based
# REPORTED CONDITIONS: compound 100 or 200 nM, 15 min incubation, read-out: Ke, EK
MEASUREMENT TYPE: Kb (nM)
Note: unit nM is implicit; provide only the numeric part.

Query string: Write down the reported Kb of Oc1ccc2c3c1O[C@H]1c4[nH]c5ccc(F)cc5c4C[C@@]4(O)[C@@H](C2)N(CC2CC2)CC[C@]314 , test system: kappa opioid receptor (Cavia porcellus, UniProt P41144).
Result string: 46.2

Continue with the compound presented below.
Query string: Write down the reported Kb of Oc1ccc2[nH]c3c(c2c1)C[C@@]1(O)[C@H]2Cc4ccc(O)c5c4[C@@]1(CCN2CC1CC1)[C@H]3O5 , test system: kappa opioid receptor (Cavia porcellus, UniProt P41144).
Result string: 68.5

---

# TARGET UNDER TEST: kappa opioid receptor (Cavia porcellus, UniProt P41144)
# Construct: a strip of longitudinal muscle with the myenteric plexus attached was prepared; from tissue; host or cells: guinea pig ileum longitudinal muscle with myenteric plexus
# METHOD NOTES: Antagonism of ethylketazocine (kappa agonist) in the guinea pig ileum (GPI) preparation
# Assay type: cell-based
# REPORTED CONDITIONS: compound 100 or 200 nM, 15 min incubation, read-out: Ke, EK
List of Kb values.
Note: unit nM is implicit; provide only the numeric part.

Worked set:
Query string: // query Kb value for entry Oc1ccc2c3c1O[C@H]1c4nc5ccccc5nc4C[C@@]4(O)[C@@H](C2)N(CC2CC2)CC[C@]314
Result string: 13.4

Query string: // query Kb value for entry Cn1c2c(c3ccccc31)C[C@@]1(O)[C@H]3Cc4ccc(O)c5c4[C@@]1(CCN3CC1CC1)[C@H]2O5
Result string: 22.2

Continue with the molecule presented below.
Query string: // query Kb value for entry Oc1ccc2c3c1O[C@H]1c4nc5ccccc5cc4C[C@@]4(O)[C@@H](C2)N(CC2CC2)CC[C@]314
Result string: 16.3

---

# TARGET UNDER TEST: delta opioid receptor (Mus musculus, UniProt P32300)
# Sequence (P32300 whole entry): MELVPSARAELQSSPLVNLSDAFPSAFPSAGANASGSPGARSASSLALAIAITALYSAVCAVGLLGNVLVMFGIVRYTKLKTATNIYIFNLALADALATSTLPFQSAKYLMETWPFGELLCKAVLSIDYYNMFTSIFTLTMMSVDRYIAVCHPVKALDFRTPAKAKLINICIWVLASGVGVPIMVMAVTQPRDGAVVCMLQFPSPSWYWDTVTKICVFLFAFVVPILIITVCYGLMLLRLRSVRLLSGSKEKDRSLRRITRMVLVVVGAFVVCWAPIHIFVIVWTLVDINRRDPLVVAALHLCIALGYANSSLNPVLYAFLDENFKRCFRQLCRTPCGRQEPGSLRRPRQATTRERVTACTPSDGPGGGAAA
# METHOD NOTES: Antagonism of DADLE (delta agonist) in the mouse vas deferens (MVD) preparation
# Type: cell-based
# Set-up: Both vasa deferentia were dissected out of mice; from tissue; host or cells: mouse vas deferens
# REPORTED CONDITIONS: agonist DADLE, MVD; compound 100 or 200 nM, 15 min incubation; read-out: Ke, DADLE
List of Kb values.
Note: unit nM is implicit; provide only the numeric part.

Worked set:
Query string: Write down the reported Kb of COc1ccc2[nH]c3c(c2c1)C[C@@]1(O)[C@H]2Cc4ccc(O)c5c4[C@@]1(CCN2CC1CC1)[C@H]3O5 , test system: delta opioid receptor (Mus musculus, UniProt P32300).
Result string: 5.7

Query string: Write down the reported Kb of Cc1cccc2c3c([nH]c12)[C@@H]1Oc2c(O)ccc4c2[C@@]12CCN(CC1CC1)[C@H](C4)[C@]2(O)C3 , test system: delta opioid receptor (Mus musculus, UniProt P32300).
Result string: 1.5

Query string: Write down the reported Kb of Oc1ccc2c3c1O[C@H]1c4[nH]c5ccccc5c4C[C@@]4(O)[C@@H](C2)N(CC2CC2)CC[C@]314 , test system: delta opioid receptor (Mus musculus, UniProt P32300).
Result string: 0.22

Query string: Write down the reported Kb of O=[N+]([O-])c1ccc2[nH]c3c(c2c1)C[C@@]1(O)[C@H]2Cc4ccc(O)c5c4[C@@]1(CCN2CC1CC1)[C@H]3O5 , test system: delta opioid receptor (Mus musculus, UniProt P32300).
Result string: 168

---
Query string: Write down the reported Kb of COc1cccc2c3c([nH]c12)[C@@H]1Oc2c(O)ccc4c2[C@@]12CCN(CC1CC1)[C@H](C4)[C@]2(O)C3 , test system: delta opioid receptor (Mus musculus, UniProt P32300).
Result string: 6.6

Query string: Write down the reported Kb of Oc1ccc2c3c1O[C@H]1c4[nH]c5c(F)cccc5c4C[C@@]4(O)[C@@H](C2)N(CC2CC2)CC[C@]314 , test system: delta opioid receptor (Mus musculus, UniProt P32300).
Result string: 0.35

Query string: Write down the reported Kb of Oc1ccc2c3c1O[C@H]1c4[nH]c5ccc(F)cc5c4C[C@@]4(O)[C@@H](C2)N(CC2CC2)CC[C@]314 , test system: delta opioid receptor (Mus musculus, UniProt P32300).
Result string: 2

---

# TARGET UNDER TEST: mu opioid receptor (Cavia porcellus, UniProt A0ACM8Q262)
# Sequence (A0ACM8Q262 1-400): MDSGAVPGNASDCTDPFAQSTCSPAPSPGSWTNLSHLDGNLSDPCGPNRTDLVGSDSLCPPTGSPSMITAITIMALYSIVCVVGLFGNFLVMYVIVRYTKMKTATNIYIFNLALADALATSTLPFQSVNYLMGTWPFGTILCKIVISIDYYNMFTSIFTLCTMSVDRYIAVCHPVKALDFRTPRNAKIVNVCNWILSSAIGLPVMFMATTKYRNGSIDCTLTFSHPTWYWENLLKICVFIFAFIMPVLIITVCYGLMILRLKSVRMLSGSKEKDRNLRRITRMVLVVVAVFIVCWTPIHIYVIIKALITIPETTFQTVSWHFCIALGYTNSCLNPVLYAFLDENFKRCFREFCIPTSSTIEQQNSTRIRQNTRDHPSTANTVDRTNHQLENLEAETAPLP
# METHOD NOTES: Antagonism of morphine (mu agonist) in the guinea pig ileum (GPI) preparation
# Type: cell-based
# REPORTED CONDITIONS: compound 100 or 200 nM, 15 min incubation, read-out: Ke
MEASUREMENT TYPE: Kb (nM)
Note: unit nM is implicit; provide only the numeric part.

Query string: // query Kb value for entry Oc1ccc2c3c1O[C@H]1c4[nH]c5ccc(F)cc5c4C[C@@]4(O)[C@@H](C2)N(CC2CC2)CC[C@]314 [Compound 3]
Result string: 61.7

Query string: // query Kb value for entry Cn1c2c(c3ccccc31)C[C@@]1(O)[C@H]3Cc4ccc(O)c5c4[C@@]1(CCN3CC1CC1)[C@H]2O5 [Compound 2]
Result string: 12.5

Query string: // query Kb value for entry Oc1ccc2c3c1O[C@H]1c4oc5ccccc5c4C[C@@]4(O)[C@@H](C2)N(CC2CC2)CC[C@]314 [Compound 8]
Result string: 30.8

Query string: // query Kb value for entry O=[N+]([O-])c1ccc2[nH]c3c(c2c1)C[C@@]1(O)[C@H]2Cc4ccc(O)c5c4[C@@]1(CCN2CC1CC1)[C@H]3O5 [Compound 6]
Result string: 92

---

# TARGET UNDER TEST: delta opioid receptor (Mus musculus, UniProt P32300)
# METHOD NOTES: Antagonism of DADLE (delta agonist) in the mouse vas deferens (MVD) preparation
# Format: cell-based
# Set-up: Both vasa deferentia were dissected out of mice; from tissue; host or cells: mouse vas deferens
# REPORTED CONDITIONS: agonist DADLE, MVD; compound 100 or 200 nM, 15 min incubation; read-out: Ke, DADLE
MEASUREMENT TYPE: Kb (nM)
Note: unit nM is implicit; provide only the numeric part.

Query string: // query Kb value for entry Oc1ccc2c3c1O[C@H]1c4nc5ccccc5cc4C[C@@]4(O)[C@@H](C2)N(CC2CC2)CC[C@]314
Result string: 2.7

Query string: // query Kb value for entry Oc1ccc2c3c1O[C@H]1c4oc5ccccc5c4C[C@@]4(O)[C@@H](C2)N(CC2CC2)CC[C@]314
Result string: 1.8

---
Query string: // query Kb value for entry Oc1ccc2c3c1O[C@H]1c4nc5ccccc5nc4C[C@@]4(O)[C@@H](C2)N(CC2CC2)CC[C@]314
Result string: 1.4

Query string: // query Kb value for entry Oc1ccc2c3c1O[C@H]1c4[nH]c5cccc(F)c5c4C[C@@]4(O)[C@@H](C2)N(CC2CC2)CC[C@]314
Result string: 5.5

Query string: // query Kb value for entry Cc1ccc2[nH]c3c(c2c1)C[C@@]1(O)[C@H]2Cc4ccc(O)c5c4[C@@]1(CCN2CC1CC1)[C@H]3O5
Result string: 4.2

Query string: // query Kb value for entry Cn1c2c(c3ccccc31)C[C@@]1(O)[C@H]3Cc4ccc(O)c5c4[C@@]1(CCN3CC1CC1)[C@H]2O5
Result string: 1.5

---

List of Kb values.
# TARGET UNDER TEST: kappa opioid receptor (Cavia porcellus)
# Construct: a strip of longitudinal muscle with the myenteric plexus attached was prepared; from tissue; host or cells: guinea pig ileum longitudinal muscle with myenteric plexus
# METHOD NOTES: Antagonism of ethylketazocine (kappa agonist) in the guinea pig ileum (GPI) preparation
# Assay type: cell-based
# REPORTED CONDITIONS: compound 100 or 200 nM, 15 min incubation, read-out: Ke, EK
Note: unit nM is implicit; provide only the numeric part.

Query string: Write down the reported Kb of COc1ccc2[nH]c3c(c2c1)C[C@@]1(O)[C@H]2Cc4ccc(O)c5c4[C@@]1(CCN2CC1CC1)[C@H]3O5 [Compound 4] , test system: kappa opioid receptor (Cavia porcellus).
Result string: 12.6

Continue with the compound presented below.
Query string: Write down the reported Kb of Oc1ccc2c3c1O[C@H]1c4oc5ccccc5c4C[C@@]4(O)[C@@H](C2)N(CC2CC2)CC[C@]314 [Compound 8] , test system: kappa opioid receptor (Cavia porcellus).
Result string: 50.8
